Assay: In vitro stability in human serum (intact radiopeptide by radio-HPLC)
Assay type: in vitro ADME
Settings: radiolabeled peptide (111In where no radiometal named), fresh human serum, 37 °C, 1000 pmol/mL, 24 h after incubation, n = 2
observable: Intact Radiopeptide in Human Serum (%)
Report the figure in % without appending any unit label.

// below: answered molecules
Input: State the recorded Intact Radiopeptide in Human Serum (%) for this entry: CCCC[C@@H](C(=O)N[C@@H](CC(=O)O)C(=O)N[C@@H](Cc1ccc2ccccc2c1)C(N)=O)N(C)C(=O)[C@H](Cc1c[nH]c2ccccc12)NC(=O)CNC(=O)[C@H](Cc1ccc(O)cc1)NC(=O)[C@H](C)NC(=O)[C@@H](CCC(=O)O)NC(=O)CN1CCN(CC(=O)O)CCN(CC(=O)O)CCN(CC(=O)O)CC1 [DOTA-[2Nal^8]MGS5]
Output: 92.0

Input: Note, next up: CCCC[C@@H](C(=O)N[C@@H](CC(=O)O)C(=O)N[C@@H](Cc1cccc2ccccc12)C(=O)NC)N(C)C(=O)[C@H](Cc1c[nH]c2ccccc12)NC(=O)CNC(=O)[C@H](Cc1ccc(O)cc1)NC(=O)[C@H](C)NC(=O)[C@@H](CCC(=O)O)NC(=O)CN1CCN(CC(=O)O)CCN(CC(=O)O)CCN(CC(=O)O)CC1 [DOTA-MGS5[NHCH3]]
Output: 98.1

Read the next record carefully.
Input: I would be grateful if you could share the reported Intact Radiopeptide in Human Serum (%) for CCCC[C@@H](C(=O)N[C@@H](CC(=O)O)C(=O)N(C)[C@@H](Cc1cccc2ccccc12)C(N)=O)N(C)C(=O)[C@H](Cc1c[nH]c2ccccc12)NC(=O)CNC(=O)[C@H](Cc1ccc(O)cc1)NC(=O)[C@H](C)NC(=O)[C@@H](CCC(=O)O)NC(=O)CN1CCN(CC(=O)O)CCN(CC(=O)O)CCN(CC(=O)O)CC1 [DOTA-[(N-Me)1Nal^8]MGS5] .
Output: 99.6

====

Experiment: Biodistribution in BALB/c nude mice bearing A431-CCK2R/A431-mock xenografts
Type: in vivo
Settings: female, athymic BALB/c nude, mouse, pancreas, iv, 20 pmol, total radioactivity, xenografted BALB/c nude mice, i.v., ~20 pmol, 4 h p.i. (indium-111 or lutetium-177), mean ± SD n = 4; read-out: Uptake in pancreas
Where a SMILES comes first, the peptide text is derived from it. [ ]: non-standard residue; d: D form. The star is where a group is joined. DOTA = O=C(O)CN1CCN(CC(=O)O)CCN(CC(=O)*)CCN(CC(=O)O)CC1; 1Nal = N[C@@H](Cc1cccc2ccccc12)C(=O)O; NMeNle = CCCC[C@H](NC)C(=O)O
observable: tissue uptake at 4 h (%ID/g)
Quick note: give the figure in %ID/g, leave out the unit.

Examples with their reported tissue uptake at 4 h follow.
Input: Tell me the measured tissue uptake at 4 h of CCCC[C@@H](C(=O)N[C@@H](CC(=O)O)C(=O)N[C@@H](Cc1cccc2ccccc12)C(=O)NC)N(C)C(=O)[C@H](Cc1c[nH]c2ccccc12)NC(=O)CNC(=O)[C@H](Cc1ccc(O)cc1)NC(=O)[C@H](C)NC(=O)[C@@H](CCC(=O)O)NC(=O)CN1CCN(CC(=O)O)CCN(CC(=O)O)CCN(CC(=O)O)CC1 [[^111In]In-DOTA-MGS5[NHCH3], metal not drawn] , please.
Output: 0.4

Input: Check CCCC[C@@H](C(=O)N[C@@H](CC(=O)O)C(=O)N[C@@H](Cc1ccc2ccccc2c1)C(N)=O)N(C)C(=O)[C@H](Cc1c[nH]c2ccccc12)NC(=O)CNC(=O)[C@H](Cc1ccc(O)cc1)NC(=O)[C@H](C)NC(=O)[C@@H](CCC(=O)O)NC(=O)CN1CCN(CC(=O)O)CCN(CC(=O)O)CCN(CC(=O)O)CC1 [[^111In]In-DOTA-[2Nal^8]MGS5, metal not drawn] too.
Output: 1.84

Continuing:
Input: Which tissue uptake at 4 h is reported for this molecule? CCCC[C@@H](C(=O)N[C@@H](CC(=O)O)C(=O)N[C@@H](Cc1cccc2ccccc12)C(N)=O)N(C)C(=O)[C@H](Cc1c[nH]c2ccccc12)NC(=O)CNC(=O)[C@H](Cc1ccc(O)cc1)NC(=O)[C@H](C)NC(=O)[C@@H](CCCCN)NC(=O)CN1CCN(CC(=O)O)CCN(CC(=O)O)CCN(CC(=O)O)CC1 [[^111In]In-DOTA-[DLys^1]MGS5, metal not drawn] ({DOTA}-[dK]AYGW[NMeNle]D[1Nal]-NH2)
Output: 2.27

====

Test: Biodistribution in BALB/c nude mice bearing A431-CCK2R/A431-mock xenografts
Format: in vivo
Conditions: female, athymic BALB/c nude, mouse, lung, iv, 20 pmol, total radioactivity, xenografted BALB/c nude mice, i.v., ~20 pmol, 4 h p.i. (indium-111 or lutetium-177), mean ± SD n = 4; read-out: Uptake in lung
Where a SMILES comes first, the peptide text is derived from it. [ ]: non-standard residue; d: D form. The star is where a group is joined. DOTA = O=C(O)CN1CCN(CC(=O)O)CCN(CC(=O)*)CCN(CC(=O)O)CC1; 1Nal = N[C@@H](Cc1cccc2ccccc12)C(=O)O; NMeNle = CCCC[C@H](NC)C(=O)O
observable: tissue uptake at 4 h (%ID/g)
The figure you give is taken to be in %ID/g; do not add the unit.

Input: GET /values?readout=tissue uptake at 4 h&item= CCCC[C@@H](C(=O)N[C@@H](CC(=O)O)C(=O)N[C@@H](Cc1cccc2ccccc12)C(N)=O)N(C)C(=O)[C@H](Cc1c[nH]c2ccccc12)NC(=O)CNC(=O)[C@H](Cc1ccc(O)cc1)NC(=O)[C@H](C)NC(=O)[C@@H](CCCCN)NC(=O)CN1CCN(CC(=O)O)CCN(CC(=O)O)CCN(CC(=O)O)CC1 [[^111In]In-DOTA-[DLys^1]MGS5, metal not drawn] ({DOTA}-[dK]AYGW[NMeNle]D[1Nal]-NH2)
Output: 0.3

More entries:
Input: Which measured tissue uptake at 4 h value corresponds to CCCC[C@@H](C(=O)N[C@@H](CC(=O)O)C(=O)N[C@@H](Cc1cccc2ccccc12)C(=O)NC)N(C)C(=O)[C@H](Cc1c[nH]c2ccccc12)NC(=O)CNC(=O)[C@H](Cc1ccc(O)cc1)NC(=O)[C@H](C)NC(=O)[C@@H](CCC(=O)O)NC(=O)CN1CCN(CC(=O)O)CCN(CC(=O)O)CCN(CC(=O)O)CC1 [[^111In]In-DOTA-MGS5[NHCH3], metal not drawn] ?
Output: 0.07

Input: Can you check CCCC[C@@H](C(=O)N[C@@H](CC(=O)O)C(=O)N(C)[C@@H](Cc1cccc2ccccc12)C(N)=O)N(C)C(=O)[C@H](Cc1c[nH]c2ccccc12)NC(=O)CNC(=O)[C@H](Cc1ccc(O)cc1)NC(=O)[C@H](C)NC(=O)[C@@H](CCC(=O)O)NC(=O)CN1CCN(CC(=O)O)CCN(CC(=O)O)CCN(CC(=O)O)CC1 [[^111In]In-DOTA-[(N-Me)1Nal^8]MGS5, metal not drawn] next?
Output: 0.21

Input: Also check CCCC[C@@H](C(=O)N[C@@H](CC(=O)O)C(=O)N[C@@H](Cc1ccc2ccccc2c1)C(N)=O)N(C)C(=O)[C@H](Cc1c[nH]c2ccccc12)NC(=O)CNC(=O)[C@H](Cc1ccc(O)cc1)NC(=O)[C@H](C)NC(=O)[C@@H](CCC(=O)O)NC(=O)CN1CCN(CC(=O)O)CCN(CC(=O)O)CCN(CC(=O)O)CC1 [[^111In]In-DOTA-[2Nal^8]MGS5, metal not drawn]
Output: 0.13

====

Assay: Metabolic studies in BALB/c mice (intact radiopeptide by radio-HPLC)
Format: in vivo
Details: i.v., 2 nmol, 10 min p.i., kidney homogenate, two animals per peptide
Where a SMILES comes first, the peptide text is derived from it. [ ]: non-standard residue; d: D form. The star is where a group is joined. DOTA = O=C(O)CN1CCN(CC(=O)O)CCN(CC(=O)*)CCN(CC(=O)O)CC1; 1Nal = N[C@@H](Cc1cccc2ccccc12)C(=O)O; NMeNle = CCCC[C@H](NC)C(=O)O
Collected Intact radiopeptide in kidney values appear next to each entry.
Just the number please, in %, no unit attached.

Solved entries (count: 3):
Input: Look up Intact radiopeptide in kidney for this compound: CCCC[C@@H](C(=O)N[C@@H](CC(=O)O)C(=O)N[C@@H](Cc1cccc2ccccc12)C(=O)NC)N(C)C(=O)[C@H](Cc1c[nH]c2ccccc12)NC(=O)CNC(=O)[C@H](Cc1ccc(O)cc1)NC(=O)[C@H](C)NC(=O)[C@@H](CCC(=O)O)NC(=O)CN1CCN(CC(=O)O)CCN(CC(=O)O)CCN(CC(=O)O)CC1 [[^111In]In-DOTA-MGS5[NHCH3]] [metal not drawn]
Output: 7.4

Input: Now consider CCCC[C@@H](C(=O)N[C@@H](CC(=O)O)C(=O)N(C)[C@@H](Cc1cccc2ccccc12)C(N)=O)N(C)C(=O)[C@H](Cc1c[nH]c2ccccc12)NC(=O)CNC(=O)[C@H](Cc1ccc(O)cc1)NC(=O)[C@H](C)NC(=O)[C@@H](CCC(=O)O)NC(=O)CN1CCN(CC(=O)O)CCN(CC(=O)O)CCN(CC(=O)O)CC1 [[^111In]In-DOTA-[(N-Me)1Nal^8]MGS5] [metal not drawn] and answer again.
Output: 40.2

Input: Okay, and CCCC[C@@H](C(=O)N[C@@H](CC(=O)O)C(=O)N[C@@H](Cc1ccc2ccccc2c1)C(N)=O)N(C)C(=O)[C@H](Cc1c[nH]c2ccccc12)NC(=O)CNC(=O)[C@H](Cc1ccc(O)cc1)NC(=O)[C@H](C)NC(=O)[C@@H](CCC(=O)O)NC(=O)CN1CCN(CC(=O)O)CCN(CC(=O)O)CCN(CC(=O)O)CC1 [[^111In]In-DOTA-[2Nal^8]MGS5] [metal not drawn] ?
Output: 24.7

With those in mind, consider the next compound.
Input: Which Intact radiopeptide in kidney value belongs to CCCC[C@@H](C(=O)N[C@@H](CC(=O)O)C(=O)N[C@@H](Cc1cccc2ccccc12)C(N)=O)N(C)C(=O)[C@H](Cc1c[nH]c2ccccc12)NC(=O)CNC(=O)[C@H](Cc1ccc(O)cc1)NC(=O)[C@H](C)NC(=O)[C@@H](CCCCN)NC(=O)CN1CCN(CC(=O)O)CCN(CC(=O)O)CCN(CC(=O)O)CC1 [[^111In]In-DOTA-[DLys^1]MGS5] [metal not drawn] ({DOTA}-[dK]AYGW[NMeNle]D[1Nal]-NH2) ?
Output: 20.6
